# credit: ChEMBL document CHEMBL1944516

System: Liver microsomes
Assay explanation: Intrinsic clearance in rat liver microsomes assessed per gram of liver at 1 uM after 60 mins by LC-MS/Ms analysis
Format: ADME, Microsome
Condition summary: 1 h
Readout kind: CLint

Record smiles	Experimental target	Value
CC[C@H]1OC(=O)[C@H](C)[C@@H](O[C@H]2C[C@@](C)(OC)[C@@H](O)[C@H](C)O2)[C@H](C)[C@@H](O[C@@H]2O[C@H](C)C[C@H](N(C)CCCNC(=O)CCCNc3ccnc4cc(Cl)ccc34)[C@H]2O)[C@](C)(O)C[C@@H](C)CN(C)[C@H](C)[C@@H](O)[C@]1(C)O	Liver microsomes	< 0.6 mL/min/g

###

Assay explanation: Clearance in CD1 mouse at 12.5 mg/kg, iv and 12.5 mg/kg, po by LC-MS/Ms analysis
Format: ADME, organism-based
Condition summary: in vivo

Record smiles	Unit info	clearance
CC[C@H]1OC(=O)[C@H](C)[C@@H](O[C@H]2C[C@@](C)(OC)[C@@H](O)[C@H](C)O2)[C@H](C)[C@@H](O[C@@H]2O[C@H](C)C[C@H](N(C)CCCNC(=O)CCCNc3ccnc4cc(Cl)ccc34)[C@H]2O)[C@](C)(O)C[C@@H](C)CN(C)[C@H](C)[C@@H](O)[C@]1(C)O	mL/min/kg	47.7

###

Consider the following molecules and their measured MIC readings.
Test system: Moraxella catarrhalis
Assay explanation: Antibacterial activity against Moraxella catarrhalis ATCC 23246 by broth microdilution method
Type: functional

Record smiles	Unit info	Comparator	MIC
CC[C@H]1OC(=O)[C@H](C)[C@@H](O[C@H]2C[C@@](C)(OC)[C@@H](O)[C@H](C)O2)[C@H](C)[C@@H](O[C@@H]2O[C@H](C)C[C@H](N(C)C)[C@H]2O)[C@](C)(O)C[C@@H](C)CN(C)[C@H](C)[C@@H](O)[C@]1(C)O	µg/mL	=	0.06
CC[C@H]1OC(=O)[C@H](C)[C@@H](O[C@H]2C[C@@](C)(OC)[C@@H](O)[C@H](C)O2)[C@H](C)[C@@H](O[C@@H]2O[C@H](C)C[C@H](N(C)C(=O)CCCNc3ccnc4cc(Cl)ccc34)[C@H]2O)[C@](C)(O)C[C@@H](C)CN(C)[C@H](C)[C@@H](O)[C@]1(C)O	µg/mL	=	4
CC[C@H]1OC(=O)[C@H](C)[C@@H](O[C@H]2C[C@@](C)(OC)[C@@H](O)[C@H](C)O2)[C@H](C)[C@@H](O[C@@H]2O[C@H](C)C[C@H](N(C)C(=O)CNc3ccnc4cc(Cl)ccc34)[C@H]2O)[C@](C)(O)C[C@@H](C)CN(C)[C@H](C)[C@@H](O)[C@]1(C)O	µg/mL	=	8
CC[C@H]1OC(=O)[C@H](C)[C@@H](O)[C@H](C)[C@@H](O[C@@H]2O[C@H](C)C[C@H](N(C)CCCNC(=O)CCCNc3ccnc4cc(Cl)ccc34)[C@H]2O)[C@](C)(O)C[C@@H](C)CN(C)[C@H](C)[C@@H](O)[C@]1(C)O	µg/mL	>	64
CC[C@H]1OC(=O)[C@H](C)[C@@H](O[C@H]2C[C@@](C)(OC)[C@@H](O)[C@H](C)O2)[C@H](C)[C@@H](O[C@@H]2O[C@H](C)C[C@H](N(C)Cc3cn(CCCNc4ccnc5cc(Cl)ccc45)nn3)[C@H]2O)[C@](C)(O)C[C@@H](C)CN(C)[C@H](C)[C@@H](O)[C@]1(C)O	µg/mL	=	2
CC[C@H]1OC(=O)[C@H](C)[C@@H](O[C@H]2C[C@@](C)(OC)[C@@H](O)[C@H](C)O2)[C@H](C)[C@@H](O[C@@H]2O[C@H](C)C[C@H](N(C)CCCNC(=O)CCCNc3ccnc4cc(Cl)ccc34)[C@H]2O)[C@](C)(O)C[C@@H](C)CN(C)[C@H](C)[C@@H](O)[C@]1(C)O	µg/mL	=	4

###

Assay explanation: Oral bioavailability in CD1 mouse at 12.5 mg/kg by LC-MS/Ms analysis
Type: ADME, organism-based
Condition summary: in vivo

Record smiles	Unit info	bioavailability
CC[C@H]1OC(=O)[C@H](C)[C@@H](O[C@H]2C[C@@](C)(OC)[C@@H](O)[C@H](C)O2)[C@H](C)[C@@H](O[C@@H]2O[C@H](C)C[C@H](N(C)CCCNC(=O)CCCNc3ccnc4cc(Cl)ccc34)[C@H]2O)[C@](C)(O)C[C@@H](C)CN(C)[C@H](C)[C@@H](O)[C@]1(C)O	%	5

###

Tested on: Liver microsomes
Assay explanation: Intrinsic clearance in human liver microsomes assessed per gram of liver at 1 uM after 60 mins by LC-MS/Ms analysis
Type: ADME, Microsome
Condition summary: 1 h

Record smiles	CLint
CC[C@H]1OC(=O)[C@H](C)[C@@H](O[C@H]2C[C@@](C)(OC)[C@@H](O)[C@H](C)O2)[C@H](C)[C@@H](O[C@@H]2O[C@H](C)C[C@H](N(C)CCCNC(=O)CCCNc3ccnc4cc(Cl)ccc34)[C@H]2O)[C@](C)(O)C[C@@H](C)CN(C)[C@H](C)[C@@H](O)[C@]1(C)O	< 0.6 mL/min/g

###

Consider the following compounds and their measured pIC50 readings.
System: Plasmodium falciparum
Assay explanation: Antimalarial activity against chloroquine-sensitive Plasmodium falciparum 3D7A infected in human A-positive erythrocytes assessed as inhibition of [3H]-hypoxanthine incorporation after 48 hrs by semi-automated microdilution technique
Format: functional, organism-based
pIC50: −log10 of the molar value.
Readout kind: pIC50

Record smiles	Readout kind	Value
CC[C@H]1OC(=O)[C@H](C)[C@@H](O[C@H]2C[C@@](C)(OC)[C@@H](O)[C@H](C)O2)[C@H](C)[C@@H](O[C@@H]2O[C@H](C)C[C@H](N(C)C(=O)CNc3ccnc4cc(Cl)ccc34)[C@H]2O)[C@](C)(O)C[C@@H](C)CN(C)[C@H](C)[C@@H](O)[C@]1(C)O	pIC50	8.00
CC[C@H]1OC(=O)[C@H](C)[C@@H](O[C@H]2C[C@@](C)(OC)[C@@H](O)[C@H](C)O2)[C@H](C)[C@@H](O[C@@H]2O[C@H](C)C[C@H](N(C)C)[C@H]2O)[C@](C)(O)C[C@@H](C)CN(C)[C@H](C)[C@@H](O)[C@]1(C)O	pIC50	4.94
CC[C@H]1OC(=O)[C@H](C)[C@@H](O)[C@H](C)[C@@H](O[C@@H]2O[C@H](C)C[C@H](N(C)CCCNC(=O)CCCNc3ccnc4cc(Cl)ccc34)[C@H]2O)[C@](C)(O)C[C@@H](C)CN(C)[C@H](C)[C@@H](O)[C@]1(C)O	pIC50	6.20
CC[C@H]1OC(=O)[C@H](C)[C@@H](O[C@H]2C[C@@](C)(OC)[C@@H](O)[C@H](C)O2)[C@H](C)[C@@H](O[C@@H]2O[C@H](C)C[C@H](N(C)C(=O)CCCNc3ccnc4cc(Cl)ccc34)[C@H]2O)[C@](C)(O)C[C@@H](C)CN(C)[C@H](C)[C@@H](O)[C@]1(C)O	pIC50	6.98
CC[C@H]1OC(=O)[C@H](C)[C@@H](O[C@H]2C[C@@](C)(OC)[C@@H](O)[C@H](C)O2)[C@H](C)[C@@H](O[C@@H]2O[C@H](C)C[C@H](N(C)CCCNC(=O)CCCNc3ccnc4cc(Cl)ccc34)[C@H]2O)[C@](C)(O)C[C@@H](C)CN(C)[C@H](C)[C@@H](O)[C@]1(C)O	pIC50	7.11

###

System: Moraxella catarrhalis
Assay explanation: Antibacterial activity against Moraxella catarrhalis ATCC 23246 by broth microdilution method
Type: functional

Record smiles	MIC / µg/mL
CC[C@H]1OC(=O)[C@H](C)[C@@H](O[C@H]2C[C@@](C)(OC)[C@@H](O)[C@H](C)O2)[C@H](C)[C@@H](O[C@@H]2O[C@H](C)C[C@H](N(C)CCCNc3ccnc4cc(Cl)ccc34)[C@H]2O)[C@](C)(O)C[C@@H](C)CN(C)[C@H](C)[C@@H](O)[C@]1(C)O	1
CC[C@H]1OC(=O)[C@H](C)[C@@H](O)[C@H](C)[C@@H](O[C@@H]2O[C@H](C)C[C@H](N(C)CCCNc3ccnc4cc(Cl)ccc34)[C@H]2O)[C@](C)(O)C[C@@H](C)CN(C)[C@H](C)[C@@H](O)[C@]1(C)O	32
